Give measured Osteoclast formation (100% = M-CSF + RANKL) for each item. Keep answers brief.
# System: purified bone marrow macrophages
# Method notes: Osteoclast formation in bone marrow macrophage cultures stimulated with M-CSF and RANKL (TRAP+ multinucleated osteoclasts)
# Type: cell-based
# Test settings: BMM #27 + #29 + #30 + #34; purified bone marrow macrophages stimulated with M-CSF and RANKL; trap+ multinucleated osteoclasts
Square brackets hold non-standard residues; d marks the D form. Peptide text beside a SMILES is read from it. * marks the point of attachment. Agmatine = N=C(N)NCCCCN*; Cbz = O=C(OCc1ccccc1)*; azaGly = NNC(=O)O; BrAc = O=C(CBr)*; ClAc = O=C(CCl)*
State the answer as a number, implicitly in %.

*Q* Given the compound CC(C)CC(NC(=O)C(NC(=O)C1OC1C(=O)c1ccccc1)C(C)C)C(=O)NCCCCNC(=N)N (single isomer, unassigned) [A-50] , what is its reported Osteoclast formation (100% = M-CSF + RANKL)?
*A* 2

*Q* Query (compound): CC(C)CC(NC(=O)C(NC(=O)C1OC1C(=O)c1ccccc1)C(C)C)C(=O)NCCCCNC(=N)N (single isomer, unassigned) [A-47] ; field requested: Osteoclast formation (100% = M-CSF + RANKL)
*A* 0

*Q* Requested field: Osteoclast formation (100% = M-CSF + RANKL). Item: CC(C)CC(NC(=O)C(NC(=O)/C=C/S(=O)(=O)Cc1ccccc1)C(C)C)C(=O)NCCCCNC(=N)N (stereo not drawn) [A-25, Bzsa-Val-Leu-Agm]
*A* 1

*Q* Quick check: Osteoclast formation (100% = M-CSF + RANKL) of CC(C)CC(NC(=O)CCCCNC(=N)N)C(=O)NC(CNC(=O)/C=C/S(=O)(=O)Cc1ccccc1)C(C)C (centres unmarked) [A-54] ?
*A* 1

*Q* So what does the record say about Osteoclast formation (100% = M-CSF + RANKL) for CC(C)C[C@H](NC(=O)[C@@H](NC(=O)[C@H](Br)Cc1ccccc1)C(C)C)C(=O)NCCCCNC(=N)N [A-16, BrPpr-Val-Leu-Agm] ?
*A* 16

*Q* Which value of Osteoclast formation (100% = M-CSF + RANKL) has been reported for CC(C)CC(NC(=O)C(NC(=O)CBr)C(C)C)C(=O)NCCCCNC(=N)N (stereo not drawn) [A-12, BrAc—Val-Leu-Agm] (BrAc-Val-Leu-Agmatine; configuration not given here) in the records?
*A* 2

*Q* Param item = COC(=O)C1OC1C(=O)NC(C(=O)NC(CC(C)C)C(=O)NCCCCNC(=N)N)C(C)C (stereo not drawn) [A-42, MeO-Eps-Val-Leu-Agm] ; retrieve measured Osteoclast formation (100% = M-CSF + RANKL).
*A* 0

*Q* Would you kindly share the measured Osteoclast formation (100% = M-CSF + RANKL) for CCC(C)C(NC(=O)/C=C/S(=O)(=O)Cc1ccccc1)C(=O)N1CCCC1C(=O)O (stereo not drawn) [M-1, Bzsa-Ile-Pro-OH] ?
*A* 14

*Q* What does the record list as Osteoclast formation (100% = M-CSF + RANKL) for CC(C)CC(NC(=O)C(CCCNC(=N)N)NC(=O)OCc1ccccc1)C(=O)NC(CNC(=O)/C=C/c1ccncc1)C(C)C (stereo not drawn) [A-49, Z-Arg-Leu-NH—CH(iPr)—CH2—NH←4-Pac] ?
*A* 0.2

*Q* Return reported Osteoclast formation (100% = M-CSF + RANKL); argument: CCC(C)C(NC(=O)NNC(=O)C(CCCNC(=N)N)NC(=O)C(CC(C)C)NC(=O)C(CCCNC(=N)N)NC(=O)OCc1ccccc1)C(=O)NC(C(=O)OC)C(C)C (stereo not drawn) [Z-RLR, Z-Arg-Leu-Arg-Agly-Ile-Val-OMe] (Cbz-RLR[azaGly]IV-OMe; configuration not given here)
*A* 0

*Q* Quick one: Osteoclast formation (100% = M-CSF + RANKL) for CC(C)CC(NC(=O)C(NC(=O)CCl)C(C)C)C(=O)NCCCCNC(=N)N (stereo not drawn) [A-11, ClAc—Val-Leu-Agm] (ClAc-Val-Leu-Agmatine; configuration not given here) ?
*A* 1

*Q* Would you kindly share the measured Osteoclast formation (100% = M-CSF + RANKL) for CC(C)CC(NC(=O)C(CCCNC(=N)N)NC(=O)OCc1ccccc1)C(=O)NC(CNC(=O)/C=C/c1ccccc1)C(C)C (stereo not drawn) [A-20, Z-Arg-Leu-NH—CH(iPr)—CH2—NH←Cin] ?
*A* 0

*Q* Given the compound CC(C)CC(NC(=O)C(CCCNC(=N)N)NC(=O)OCc1ccccc1)C(=O)NC(C(=O)NC(Cc1ccccc1)C(N)=O)C(C)C (stereo not drawn) [A-59, Ppa-Arg-Leu-Val-Phe-NH2] (Cbz-RLVF-NH2; configuration not given here) , what is its reported Osteoclast formation (100% = M-CSF + RANKL)?
*A* 0

*Q* # get_value(readout='Osteoclast formation (100% = M-CSF + RANKL)', item= CC(C)CC(NC(=O)C(NC(=O)/C=C/C(=O)c1ccccc1)C(C)C)C(=O)NCCCCNC(=N)N (stereo not drawn) [A-33, Bzac-Val-Leu-Agm] )
*A* 0
